test: chemical genetic growth profiling, strain panel (AID 1159580);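 note: tested at 20 µM; growth read once vehicle control cultures reached saturation at 30 °C; 1 = growth at the plate median or of vehicle wells; lower values mean less growth of the strain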; conditions: S. cerevisiae deletion strains, growth OD, locus YJR043C, strain POL32, active compounds read low
In all, about 5,500 compounds went through this assay and about 2,000 (36%) were called active. Another 18% or so got no clear call; they are omitted. This is one part of the list.
Documented normalized growth across a set of compounds

Examples with answers:
1) CC(NCCc1ccc(O)cc1)C(O)c1ccc(O)cc1 (stereo unspecified)
0.992 (inactive)
2) CC(C)(C)c1ccc(-c2nc(-c3cc(C(C)(C)C)c(O)c(C(C)(C)C)c3)cs2)cc1
1.01 (inactive)
3) CCOC(=O)C(=CNNC(=O)c1ccccc1-n1cccc1)C(=O)OCC
1.01 (inactive)
4) CCCCCCCCNC(C)C(O)c1ccc(SC(C)C)cc1 (stereo unspecified)
0.0599 (active)
5) CNC(C)[C@H](O)c1ccccc1 (stereo partly specified)
1.04 (inactive)

From here, focus on the item given below.
Note to self: normalized growth recorded for CC(C)(C)c1cc(-c2csc(-c3ccc(Cl)cc3)n2)cc(C(C)(C)C)c1O was 1.01 (inactive)

----------
assay: chemical genetic growth profiling, strain panel (AID 1159580); conditions: S. cerevisiae deletion strains, growth OD, locus YBR279W, strain paf1, active compounds read low
Screen size: about 5,500 compounds; about 2,000 (36%) were called active. Inconclusive results (about 18%) are left out. The list shows a part of the results.
Lab note: cut-off is 1. Strictly less in normalized growth is 1 (yes). Exactly 1 or more is 0 (no).

Query string: Field: below-cutoff. Rule: recorded normalized growth strictly less than 1. Subject: CC1=C(/C=C/C(C)=C/C=C/C(C)=C/C=C/C=C(C)/C=C/C=C(C)/C=C/C(=O)[C@]2(C)C[C@@H](O)CC2(C)C)C(C)(C)C[C@H](O)C1
Result string: 0 (no)

Query string: Field: below-cutoff. Rule: recorded normalized growth strictly less than 1. Subject: CCN(CC)CCCC(C)Nc1c2ccc(Cl)cc2nc2ccc(OC)cc12 (centres undefined)
Result string: 1 (yes)

----------
test: chemical genetic growth profiling, strain panel (AID 1159580); conditions: S. cerevisiae deletion strains, growth OD, locus YCR088W, strain abp1, active compounds read low
Out of some 5,500 compounds screened, about 2,000 (36%) were called active. Not shown: some 18% with an inconclusive outcome. The list shows a part of the results.
Lab note: cut-off is 1. Strictly less in normalized growth is 1.0. Exactly 1 or more is 0.0.

Past entries and their recorded results:
1) CC1=C(/C=C/C(C)=C/C=C/C(C)=C/C=C/C=C(C)/C=C/C=C(C)/C=C/C2=C(C)C(=O)C(O)CC2(C)C)C(C)(C)CC(O)C1=O (configuration not stated)
0.0
2) COc1ccc2cc([C@H](C)CO)ccc2c1
1.0
3) CCOC(=O)C(=O)C1(C(=O)OCC)Oc2cc(OC)cc(OC)c2C(=O)C1c1ccccc1 (configuration not stated)
1.0
4) C=Cc1c2[nH]c(c1C)C=c1[nH]c(c(C)c1C=C)=CC1N=C(C=c3[nH]c(c(C)c3CCC(=O)O)=C2)C(CCC(=O)O)=C1C (configuration not stated)
0.0
5) CCC(=O)O[C@H]1CCC2C3CCC4=CC(=O)CC[C@]4(C)C3CC[C@@]21C (some centres not stated)
1.0

Query string: Field: below-cutoff. Rule: recorded normalized growth strictly less than 1. Subject: COc1ccc2c(c1)O[C@@H]1COc3cc(OC)c(OC)cc3[C@@H]1C2=O
Result string: 1.0

Query string: Field: below-cutoff. Rule: recorded normalized growth strictly less than 1. Subject: COc1cc(NS(=O)(=O)c2ccc(N)cc2)nc(OC)n1
Result string: 1.0

----------
assay: chemical genetic growth profiling, strain panel (AID 1159580); conditions: S. cerevisiae deletion strains, growth OD, locus YLR418C, strain cdc73
Hit rate of the full screen: of about 5,500 compounds, about 2,000 (36%) were called active. Roughly 18% stayed inconclusive and do not appear here. Cut-off read from the data, not from the text of the source: active = normalized growth mostly below about 0.91 (no sharp cut-off); inconclusive = no clear call, values can overlap the other calls; inactive = mostly above about 0.92. The list shows a part of the results.
Thanks in advance; please answer with one of these: 1 (yes) = active, 0 (no) = inactive

1) NCC1CCC(C(=O)O)CC1 (configuration not stated)
0 (no)
2) CN1CCCN=C1COC(=O)C(O)(c1ccccc1)C1CCCCC1 (configuration not stated)
0 (no)
3) CN(C)C(=S)SSC(=S)N(C)C
1 (yes)
4) C[C@@H]1[C@H]2[C@H](O[C@@H]3O[C@H](CO)[C@@H](O)[C@H](O)[C@H]3O)OC=C(C(=O)O)[C@H]2C[C@@H]1O
0 (no)

Query string: State the result this test recorded for CN1CCC(=C2c3ccccc3CC(=O)c3sccc32)CC1 .
Result string: 0 (no)

Query string: State the result this test recorded for CC(=O)OC(C)(C)[C@@H]1Cc2cc3ccc(=O)oc3cc2O1 .
Result string: 0 (no)

----------
test: chemical genetic growth profiling, strain panel (AID 1159580); conditions: S. cerevisiae deletion strains, growth OD, locus YPR141C, strain kar3
The campaign covered roughly 5,500 compounds. About 2,000 (36%) were called active. Another 18% or so got no clear call; they are omitted. Cut-off read from the data, not from the text of the source: active = normalized growth mostly below about 0.91 (no sharp cut-off); inconclusive = no clear call, values can overlap the other calls; inactive = mostly above about 0.92. Some of the results follow.
Thanks in advance; please answer with one of these: class 1 for active, class 0 for inactive

Past entries and their recorded results:
1. CCOC(=O)C(Cc1ccc(O)cc1)NC(C)=O (stereo not given)
class 0
2. CC(=O)OCC[N+](C)(C)C
class 1
3. C[C@H]1CC2C([C@@H](O)C[C@@]3(C)C2CC[C@]3(O)C(=O)CO)[C@@]2(C)C=CC(=O)C=C12 (stereo not given in full)
class 0
4. CC1=C(CC(=O)O)c2cc(F)ccc2/C1=C\c1ccc(S(C)=O)cc1 (stereo not given)
class 0
5. CC(C[N+](C)(C)C)OC(N)=O (stereo not given)
class 0

Query string: State the result this test recorded for CCS(=O)CCSP(=O)(OC)OC (stereo not given) .
Result string: class 0

----------
assay: chemical genetic growth profiling, strain panel (AID 1159580);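 note: tested at 20 µM; growth read once vehicle control cultures reached saturation at 30 °C; 1 = growth at the plate median or of vehicle wells; lower values mean less growth of the strain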; details: S. cerevisiae deletion strains, growth OD, locus YNL153C, strain GIM3, active compounds read low
Among all 5,500 compounds or so, about 2,000 (36%) were called active. Another 18% or so got no clear call; they are omitted. Some of the results follow.
Documented normalized growth across a set of compounds

1. CNC(=O)OCC[N+](C)(C)C
0.983 (inactive)
2. CCOc1ccc(/C=C(\C#N)c2cccc(Cl)c2)cc1
1.01 (inactive)
3. CC(CCc1ccc(O)cc1)NCCc1ccc(O)c(O)c1 (configuration not stated)
0.944 (inactive)
4. ClC1=C(Cl)C2(Cl)C3C(Cl)C=CC3C1(Cl)C2(Cl)Cl (configuration not stated)
0.989 (inactive)
5. CNc1cc(NS(=O)(=O)c2ccc(N)cc2)nc(NC)n1
1.01 (inactive)
6. COc1ccc2c(c1OC)C(=O)O[C@@H]2[C@H]1c2cc3c(cc2CCN1C)OCO3
1.01 (inactive)
7. CC(=O)NCCc1ccc(O)c(O)c1
0.986 (inactive)
8. COc1cc2c(cc1OC)CC(=O)OC2
1.03 (inactive)

Note to self: normalized growth recorded for COc1ccc2c(c1OC)C(=O)O[C@H]2[C@H]1c2cc3c(cc2CCN1C)OCO3 was 1 (inactive)

Note to self: normalized growth recorded for CCCN(CCC)CCc1ccc(O)c(O)c1 was 1 (inactive)

Note to self: normalized growth recorded for Cc1ccc(C)c(NC(=S)N(CCc2ccccc2)CCc2ccccn2)c1 was 1.01 (inactive)

Note to self: normalized growth recorded for CC(CCc1ccccc1)NC(C)C(O)c1ccc(O)cc1 (configuration not stated) was 1 (inactive)

----------
experiment: chemical genetic growth profiling, strain panel (AID 1159580);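 note: tested at 20 µM; growth read once vehicle control cultures reached saturation at 30 °C; 1 = growth at the plate median or of vehicle wells; lower values mean less growth of the strain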; conditions: S. cerevisiae deletion strains, growth OD, locus YKL193C, strain SDS22, active compounds read low
The whole screen tested about 5,500 compounds, of which about 2,000 (36%) were called active. Inconclusive results (about 18%) are left out. This is one part of the list.
Documented normalized growth across a set of compounds
Give the figure by itself; no unit, no explanation.

Examples with answers:
1) CC(C)(C)CN/C(C#N)=C(/C#N)NCc1cccc(Cl)c1
0.984
2) Cc1ccc(-c2csc(-c3cccnc3)n2)c(C)c1
0.945
3) COc1ccc(NNC(=O)c2sc3ccccc3c2Cl)cc1
0.923

Note to self: normalized growth recorded for CS(=NC(=O)c1cccc(Cl)c1)c1ccc(OC(=O)c2ccc(Cl)cc2)cc1 (centres undefined) was 0.964

----------
assay: chemical genetic growth profiling, strain panel (AID 1159580);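 note: tested at 20 µM; growth read once vehicle control cultures reached saturation at 30 °C; 1 = growth at the plate median or of vehicle wells; lower values mean less growth of the strain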; details: S. cerevisiae deletion strains, growth OD, locus YBR171W, strain sec66, active compounds read low
Among all 5,500 compounds or so, about 2,000 (36%) were called active. Not shown: some 18% with an inconclusive outcome. This is one part of the list.
Reported endpoint: normalized growth
Give the figure by itself; no unit, no explanation.

Examples with answers:
1. ClC1=C(Cl)C2(Cl)C3C(Cl)C=CC3C1(Cl)C2(Cl)Cl (centres undefined)
0.994
2. COc1cc(/C=C/C(=O)/C=C(O)/C=C/c2ccc(O)c(OC)c2)ccc1O
0.132
3. CN(C)c1ccc(C(=C2C=CC(=[N+](C)C)C=C2)c2ccc(N(C)C)cc2)cc1
0.717
4. C[N+](C)(C)CCOC(N)=O
1.02
5. O=C1C=CC(=C(c2ccc(O)cc2)c2ccc(O)cc2)C=C1
0.968
6. CCC(=O)O[C@H]1CCC2C3CCC4=CC(=O)CC[C@]4(C)C3CC[C@@]21C (some centres undefined)
0.925
7. ClC1=C(Cl)C2(Cl)C3C4C=CC(C4)C3C1(Cl)C2(Cl)Cl (centres undefined)
0.988
8. COc1cc(O)c(C(=O)/C=C/c2ccc(O)c(OC)c2)c(OC)c1
0.971
9. C=Cc1c2[nH]c(c1C)C=c1[nH]c(c(C)c1C=C)=CC1N=C(C=c3[nH]c(c(C)c3CCC(=O)O)=C2)C(CCC(=O)O)=C1C (centres undefined)
1.08
10. CC1(C)OC(=O)NC1=O
1.01

Note to self: normalized growth recorded for CO[C@H]1[C@H](O)[C@H](O[C@H]2CC[C@]3(C)C4CC[C@]5(C)C(C6=CC(=O)OC6)CC[C@]5(O)C4CC[C@@H]3C2)O[C@@H](C)[C@@H]1O (some centres undefined) was 0.984

Note to self: normalized growth recorded for c1ccc(N=Nc2ccccc2)cc1 was 0.975

Note to self: normalized growth recorded for C[C@]12CCC(=O)C=C1CCC1C2CC[C@@]2(C)C1CC[C@@H]2O (some centres undefined) was 0.969

Note to self: normalized growth recorded for COCCc1ccc(OCC(O)CNC(C)C)cc1 (centres undefined) was 0.986

Note to self: normalized growth recorded for CCCCCCCCCCCCCCCC(=O)OC/C=C(C)/C=C/C=C(C)/C=C/C1=C(C)CCCC1(C)C was 1.02
